The values you see were collected from the supplement of paper PMC10567573.

Each entry below carries its recorded protein stability index.
B1: FBXO3 (parent)
chain: HDPLWRRHCKKYWLISEEEKTQKN

variants of: B1; test: protein stability index of a GFP-peptide fusion (GPS, HEK-293T) (PSI 1-6); higher = more stable; conditions: c terminus: a fixed tail appended;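 further: lentivirally expressed fusions sorted by FACS into six bins by GFP to DsRed ratio, PSI derived from sequencing read proportions per bin multiplied by bin number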
assay.endpoint: protein stability index

HDPLWRRHIKKYWLISEEEKTQKN | 3.58
YDPLWRRHCKKYWLISEEEKTQKN | 2.12
HDPLWQRHCKKYWLISEEEKTQKN | 3.54
HDPLRRRHCKKYWLISEEEKTQKN | 3.42
HDPLFRRHCKKYWLISEEEKTQKN | 4.56
HDPLWRRHCKKQWLISEEEKTQKN | 3.61
HDPLWRRHCKKYWLCSEEEKTQKN | 3.73
HDPLWRRHCKKYWLISEEEQTQKN | 3.66
HDPLSRRHCKKYWLISEEEKTQKN | 4.08
HDPLWRRHCKKYWLISEEEKTAKN | 3.29
HDPLWRTHCKKYWLISEEEKTQKN | 3.53
HDPLWRRHCKKYWLITEEEKTQKN | 3.51
HDPLWRRHCKSYWLISEEEKTQKN | 2.79
HDPLWRRHCKKYWLISEEEKTQTN | 3.31
HDPLWRRCCKKYWLISEEEKTQKN | 2.03
HDPLWRRHCKKYWLISETEKTQKN | 2.89
HDPLWRMHCKKYWLISEEEKTQKN | 2.86
HKPLWRRHCKKYWLISEEEKTQKN | 2.58
HDPLWRRHCKKYWLISEEEKTCKN | 2.79
HDPLWRRHCKKYWLISEEEKNQKN | 2.95
HDPLWRRHCKTYWLISEEEKTQKN | 2.71
HRPLWRRHCKKYWLISEEEKTQKN | 2.86
